Target: Melanocortin receptor 4 (Homo sapiens, UniProt P32245)
Sequence (P32245 whole entry): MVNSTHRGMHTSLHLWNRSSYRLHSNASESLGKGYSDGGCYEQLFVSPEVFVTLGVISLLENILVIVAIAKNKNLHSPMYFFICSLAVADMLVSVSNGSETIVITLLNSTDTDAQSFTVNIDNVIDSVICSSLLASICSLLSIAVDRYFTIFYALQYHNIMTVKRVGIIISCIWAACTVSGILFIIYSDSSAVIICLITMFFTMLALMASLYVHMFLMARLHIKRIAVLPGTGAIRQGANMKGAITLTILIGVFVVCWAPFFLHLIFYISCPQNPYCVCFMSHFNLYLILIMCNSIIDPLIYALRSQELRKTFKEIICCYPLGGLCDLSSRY
Assay: Agonist activity at human FLAG-tagged MC4R expressed in HTLA cells assessed as induction of beta-arrestin recruitment at 10 uM after 18 hrs by Presto-tango assay relative to NDP-MSH
Type: cell-based
Quantity: Activity (%)
Write the answer as a number in %, unit excluded.

In the examples that follow, each entry is paired with its recorded Activity.
Mol Smiles	Units Symbol	Activity
N=C(N)NCCC[C@H](NC(=O)[C@@H](Cc1ccc2ccccc2c1)NC(=O)[C@H](Cc1cnc[nH]1)NC(=O)COCC(=O)NCCCOCCOCCOCCCN)C(=O)N[C@@H](Cc1c[nH]c2ccccc12)C(N)=O	%	20
CC(=O)N[C@@H](Cc1cnc[nH]1)C(=O)N[C@H](Cc1ccc2ccccc2c1)C(=O)N[C@@H](CCCNC(=N)N)C(=O)N[C@@H](Cc1c[nH]c2ccccc12)C(=O)N1CCC[C@H]1C(=O)NCC(=O)N1CCC[C@H]1C(=O)NCC(=O)N1CCC[C@H]1C(=O)NCC(=O)N1CCC[C@H]1C(=O)NCC(=O)N1CCC[C@H]1C(=O)NCC(=O)N1CCC[C@H]1C(=O)NCC(=O)N[C@@H](Cc1cnc[nH]1)C(=O)N[C@H](Cc1ccccc1)C(=O)N[C@@H](CCCNC(=N)N)C(=O)N[C@@H](Cc1c[nH]c2ccccc12)C(N)=O	%	55

Now for a further compound.
Melanocortin receptor 4 (Homo sapiens, UniProt P32245) / Activity / `CC(=O)N[C@@H](Cc1cnc[nH]1)C(=O)N[C@H](Cc1ccc2ccccc2c1)C(=O)N[C@@H](CCCNC(=N)N)C(=O)N[C@@H](Cc1c[nH]c2ccccc12)C(=O)NCCCOCCOCCOCCCNC(=O)COCC(N)=O` : value?
15
